- Tested on: A549
- ASSAY_NOTES: Inhibition of proliferation / cytotoxicity, A549
- Type: cell-based
- ASSAY_CONDITIONS: A549 human lung cancer cell line; read-out: Tumor Cell Line (IC50, nM) A549
API: label(entry) gives MET if the entry's IC50 is strictly smaller than 2 nM; on equality or larger values it gives NOT MET.

[Q] In the record for CCC(C=CC1OC(=O)C=CC1C)=CC(C)CC=CC(C)=CC(C)C(=O)C(C)C(O)C(C)CC(C)=CC(=O)NCCNC (centres unmarked) , is IC50 less than 2 nM?
[A] NOT MET

[Q] In the record for CCC(C=CC1OC(=O)C=CC1C)=CC(C)CC=CC(C)=CC(C)C(=O)C(C)C(O)C(C)CC(C)=CC(=O)NCCC1OCCO1 (centres unmarked) , is IC50 less than 2 nM?
[A] MET

[Q] In the record for CCC(C=CC1OC(=O)C=CC1C)=CC(C)CC=CC(C)=CC(C)C(=O)C(C)C(O)C(C)CC(C)=CC(=O)NCCO (centres unmarked) , is IC50 less than 2 nM?
[A] NOT MET

[Q] In the record for CCC(C=CC1OC(=O)C=CC1C)=CC(C)CC=CC(C)=CC(C)C(=O)C(C)C(O)C(C)CC(C)=CC(=O)NC (centres unmarked) , is IC50 less than 2 nM?
[A] MET

[Q] In the record for CCC(C=CC1OC(=O)C=CC1C)=CC(C)CC=CC(C)=CC(C)C(=O)C(C)C(O)C(C)CC(C)=CC(=O)NCCN (centres unmarked) , is IC50 less than 2 nM?
[A] NOT MET

[Q] In the record for CCC(C=CC1OC(=O)C=CC1C)=CC(C)CC=CC(C)=CC(C)C(=O)C(C)C(O)C(C)CC(C)=CC(=O)NCCOc1ccccc1 (centres unmarked) , is IC50 less than 2 nM?
[A] NOT MET

[Q] In the record for CCC(C=CC1OC(=O)C=CC1C)=CC(C)CC=CC(C)=CC(C)C(=O)C(C)C(O)C(C)CC(C)=CC(=O)NCCCCCNC(=O)COc1ccc(C2=NC(=Cc3ccc(-c4cccs4)n3B(F)F)C=C2)cc1 (centres unmarked) , is IC50 less than 2 nM?
[A] NOT MET

[Q] In the record for CCC(C=CC1OC(=O)C=CC1C)=CC(C)CC=CC(C)=CC(C)C(=O)C(C)C(O)C(C)CC(C)=CC(=O)NCCCN1CCOCC1 (centres unmarked) , is IC50 less than 2 nM?
[A] MET

[Q] In the record for CCC(C=CC1OC(=O)C=CC1C)=CC(C)CC=CC(C)=CC(C)C(=O)C(C)C(O)C(C)CC(C)=CC(=O)NCCc1cccnc1 (centres unmarked) , is IC50 less than 2 nM?
[A] MET

[Q] In the record for CCC(C=CC1OC(=O)C=CC1C)=CC(C)CC=CC(C)=CC(C)C(=O)C(C)C(O)C(C)CC(C)=CC(=O)NCCNC(=O)CCC1=NC(=Cc2c(C)cc(C)n2B(F)F)C=C1 (centres unmarked) , is IC50 less than 2 nM?
[A] NOT MET

[Q] In the record for CCC(C=CC1OC(=O)C=CC1C)=CC(C)CC=CC(C)=CC(C)C(=O)C(C)C(O)C(C)CC(C)=CC(=O)NCCNC(=O)OC(C)(C)C (centres unmarked) , is IC50 less than 2 nM?
[A] MET

[Q] In the record for CCC(C=CC1OC(=O)C=CC1C)=CC(C)CC=CC(C)=CC(C)C(=O)C(C)C(O)C(C)CC(C)=CC(=O)NCc1c(C)c(=O)n2c(=O)c(C)c(C)n12 (centres unmarked) , is IC50 less than 2 nM?
[A] NOT MET

[Q] In the record for CCC(C=CC1OC(=O)C=CC1C)=CC(C)CC=CC(C)=CC(C)C(=O)C(C)C(O)C(C)CC(C)=CC(=O)NCCCCNC(=O)OC(C)(C)C (centres unmarked) , is IC50 less than 2 nM?
[A] MET

[Q] In the record for CCC(C=CC1OC(=O)C=CC1C)=CC(C)CC=CC(C)=CC(C)C(=O)C(C)C(O)C(C)CC(C)=CC(=O)NCc1ccc(-c2ccccc2)cc1 (centres unmarked) , is IC50 less than 2 nM?
[A] NOT MET

[Q] In the record for CCC(C=CC1OC(=O)C=CC1C)=CC(C)CC=CC(C)=CC(C)C(=O)C(C)C(O)C(C)CC(C)=CC(=O)NCCNC(C)C (centres unmarked) , is IC50 less than 2 nM?
[A] NOT MET

[Q] In the record for CCC(=C/[C@H](C)C/C=C/C(C)=C/[C@@H](C)C(=O)[C@@H](C)[C@H](O)[C@@H](C)C/C(C)=C/C(=O)O)/C=C/[C@@H]1OC(=O)C=C[C@@H]1C [LMB, Leptomycin B, reference compound] , is IC50 less than 2 nM?
[A] MET

[Q] In the record for CCC(C=CC1OC(=O)C=CC1C)=CC(C)CC=CC(C)=CC(C)C(=O)C(C)C(O)C(C)CC(C)=CC(=O)NCCN(C)C (centres unmarked) , is IC50 less than 2 nM?
[A] NOT MET

[Q] In the record for CCC(C=CC1OC(=O)C=CC1C)=CC(C)CC=CC(C)=CC(C)C(=O)C(C)C(O)C(C)CC(C)=CC(=O)Nc1ccc2cn[nH]c2c1 (centres unmarked) , is IC50 less than 2 nM?
[A] NOT MET

[Q] In the record for CCC(C=CC1OC(=O)C=CC1C)=CC(C)CC=CC(C)=CC(C)C(=O)C(C)C(O)C(C)CC(C)=CC(=O)NCC(=O)O (centres unmarked) , is IC50 less than 2 nM?
[A] NOT MET

[Q] In the record for CCC(C=CC1OC(=O)C=CC1C)=CC(C)CC=CC(C)=CC(C)C(=O)C(C)C(O)C(C)CC(C)=CC(=O)NCC(=O)OC (centres unmarked) , is IC50 less than 2 nM?
[A] MET
